Attribution: paper PMC3961306

# experimental target: panel of more than 300 wild-type and mutant kinases (313 kinase panel) (Homo sapiens, UniProt Q14289)
# Sequence (Q14289 whole entry, change not shown): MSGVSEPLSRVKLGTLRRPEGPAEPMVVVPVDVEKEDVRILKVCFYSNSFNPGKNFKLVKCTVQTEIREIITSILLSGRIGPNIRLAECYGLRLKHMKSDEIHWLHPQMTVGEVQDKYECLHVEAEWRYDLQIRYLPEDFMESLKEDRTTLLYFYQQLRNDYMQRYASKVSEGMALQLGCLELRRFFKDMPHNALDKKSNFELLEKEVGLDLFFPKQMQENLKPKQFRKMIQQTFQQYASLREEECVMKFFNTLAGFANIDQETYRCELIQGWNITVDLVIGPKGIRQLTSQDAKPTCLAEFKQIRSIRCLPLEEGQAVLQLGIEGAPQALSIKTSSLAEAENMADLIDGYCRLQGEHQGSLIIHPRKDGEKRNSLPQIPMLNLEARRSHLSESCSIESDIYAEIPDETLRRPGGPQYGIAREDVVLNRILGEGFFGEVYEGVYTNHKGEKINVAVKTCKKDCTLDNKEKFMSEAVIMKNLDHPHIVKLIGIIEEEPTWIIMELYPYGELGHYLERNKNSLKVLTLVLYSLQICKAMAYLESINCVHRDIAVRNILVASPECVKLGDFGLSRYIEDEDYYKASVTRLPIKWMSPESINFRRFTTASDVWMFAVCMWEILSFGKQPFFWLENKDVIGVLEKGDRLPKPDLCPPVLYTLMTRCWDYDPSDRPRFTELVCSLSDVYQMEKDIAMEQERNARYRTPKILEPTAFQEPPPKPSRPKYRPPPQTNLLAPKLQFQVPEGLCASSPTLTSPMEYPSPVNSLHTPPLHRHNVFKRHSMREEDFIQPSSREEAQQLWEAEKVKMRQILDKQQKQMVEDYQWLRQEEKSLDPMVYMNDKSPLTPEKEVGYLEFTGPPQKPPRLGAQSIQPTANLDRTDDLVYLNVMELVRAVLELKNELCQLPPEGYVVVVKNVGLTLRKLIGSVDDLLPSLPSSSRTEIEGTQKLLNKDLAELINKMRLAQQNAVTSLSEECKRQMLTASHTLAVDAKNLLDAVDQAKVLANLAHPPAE
# procedure details: Kinase profiling in a biochemical assay panel (mobility shift assays and ELISA), %-inhibition at 1 μM; selectivity entropy
# setup conditions: kinase PYK2; 1 μM
Could you please report measured %-inhibition of PYK2 for the items listed next?
Field: value (include unit after the number)

Observe how each entry below is paired with its result.
CC(C)(C)c1nc(-c2cccc(NS(=O)(=O)c3c(F)cccc3F)c2F)c(-c2ccnc(N)n2)s1 [dabrafenib] :: 56%
CCN(CC)CCNC(=O)c1c(C)[nH]c(/C=C2\C(=O)Nc3ccc(F)cc32)c1C [sunitinib] :: 94%
CO[C@H]1C[C@@H]2CC[C@@H](C)[C@@](O)(O2)C(=O)C(=O)N2CCCC[C@H]2C(=O)O[C@H]([C@H](C)C[C@@H]2CC[C@@H](OCCO)[C@H](OC)C2)CC(=O)[C@H](C)/C=C(\C)[C@@H](O)[C@@H](OC)C(=O)[C@H](C)C[C@H](C)/C=C/C=C/C=C/1C [everolimus] :: 1.49%
COc1cc2nccc(Oc3ccc(NC(=O)C4(C(=O)Nc5ccc(F)cc5)CC4)cc3)c2cc1OC [cabozantinib] :: 91%
CC(=O)Nc1cccc(-n2c(=O)n(C3CC3)c(=O)c3c(Nc4ccc(I)cc4F)n(C)c(=O)c(C)c32)c1 [trametinib] :: 2.72%
Cc1ccc(Nc2nccc(N(C)c3ccc4c(C)n(C)nc4c3)n2)cc1S(N)(=O)=O [pazopanib] :: 39%
CS(=O)(=O)CCNCc1ccc(-c2ccc3ncnc(Nc4ccc(OCc5cccc(F)c5)c(Cl)c4)c3c2)o1 [lapatinib] :: -0.787%
CCCS(=O)(=O)Nc1ccc(F)c(C(=O)c2c[nH]c3ncc(-c4ccc(Cl)cc4)cc23)c1F [vemurafenib] :: 0.921%

Batch of 6 molecules: report %-inhibition of PYK2 for each.
1. COc1cc2c(Nc3ccc(Br)cc3F)ncnc2cc1OCC1CCN(C)CC1 [vandetanib]
2. CNC(=O)c1cc(Oc2ccc(NC(=O)Nc3ccc(Cl)c(C(F)(F)F)c3)c(F)c2)ccn1 [regorafenib]
3. N#CC[C@H](C1CCCC1)n1cc(-c2ncnc3[nH]ccc23)cn1 [ruxolitinib]
4. Cc1ccc(C(=O)Nc2ccc(CN3CCN(C)CC3)c(C(F)(F)F)c2)cc1C#Cc1cnc2cccnn12 [ponatinib]
5. O=S(=O)(c1cccc2cnccc12)N1CCCNCC1 [fasudil]
6. CO[C@H]1C[C@@H]2CC[C@@H](C)[C@@](O)(O2)C(=O)C(=O)N2CCCC[C@H]2C(=O)O[C@H]([C@H](C)C[C@@H]2CC[C@@H](OC(=O)C(C)(CO)CO)[C@H](OC)C2)CC(=O)[C@H](C)/C=C(\C)[C@@H](O)[C@@H](OC)C(=O)[C@H](C)C[C@H](C)/C=C/C=C/C=C/1C [temsirolimus]

1: 6%; 2: -0.496%; 3: 68%; 4: 99%; 5: 1.79%; 6: -3%

Indicate its recorded %-inhibition of PYK2; the molecule in question is COc1cc(Nc2c(C#N)cnc3cc(OCCCN4CCN(C)CC4)c(OC)cc23)c(Cl)cc1Cl [bosutinib]
89%

----------
Could you please report measured %-inhibition of PDHK4 for the items listed next?
# experimental target: panel of more than 300 wild-type and mutant kinases (313 kinase panel) (Homo sapiens)
# procedure details: Kinase profiling in a biochemical assay panel (mobility shift assays and ELISA), %-inhibition at 1 μM; selectivity entropy
# setup conditions: kinase PDHK4; 1 μM
Give bare numbers, in %.

Observe how each entry below is paired with its result.
O=S(=O)(c1cccc2cnccc12)N1CCCNCC1 :: 4.74
CN(C)C/C=C/C(=O)Nc1cc2c(Nc3ccc(F)c(Cl)c3)ncnc2cc1O[C@H]1CCOC1 :: -3.28
CNC(=O)c1cc(Oc2ccc(NC(=O)Nc3ccc(Cl)c(C(F)(F)F)c3)c(F)c2)ccn1 :: -1.61
Cc1cn(-c2cc(NC(=O)c3ccc(C)c(Nc4nccc(-c5cccnc5)n4)c3)cc(C(F)(F)F)c2)cn1 :: -4.31
CO[C@H]1C[C@@H]2CC[C@@H](C)[C@@](O)(O2)C(=O)C(=O)N2CCCC[C@H]2C(=O)O[C@H]([C@H](C)C[C@@H]2CC[C@@H](OCCO)[C@H](OC)C2)CC(=O)[C@H](C)/C=C(\C)[C@@H](O)[C@@H](OC)C(=O)[C@H](C)C[C@H](C)/C=C/C=C/C=C/1C :: 2

Batch of 5 molecules: report %-inhibition of PDHK4 for each.
1. N#CC[C@H](C1CCCC1)n1cc(-c2ncnc3[nH]ccc23)cn1
2. C[C@@H](Oc1cc(-c2cnn(C3CCNCC3)c2)cnc1N)c1c(Cl)ccc(F)c1Cl
3. COc1cc2c(Nc3ccc(Br)cc3F)ncnc2cc1OCC1CCN(C)CC1
4. CCCS(=O)(=O)Nc1ccc(F)c(C(=O)c2c[nH]c3ncc(-c4ccc(Cl)cc4)cc23)c1F
5. Cc1ccc(C(=O)Nc2ccc(CN3CCN(C)CC3)c(C(F)(F)F)c2)cc1C#Cc1cnc2cccnn12

[-6, -3.76, -1.83, -1.4, -1.4]

----------
# experimental target: panel of more than 300 wild-type and mutant kinases (313 kinase panel) (Homo sapiens, UniProt Q13164)
# procedure details: Kinase profiling in a biochemical assay panel (mobility shift assays and ELISA), %-inhibition at 1 μM; selectivity entropy
# setup conditions: kinase Erk5; compound at 1 μM
Could you please report measured %-inhibition of Erk5 for the items listed next?
One number for each entry, in %.

CCCS(=O)(=O)Nc1ccc(F)c(C(=O)c2c[nH]c3ncc(-c4ccc(Cl)cc4)cc23)c1F [vemurafenib] :: 0.709
CCN(CC)CCNC(=O)c1c(C)[nH]c(/C=C2\C(=O)Nc3ccc(F)cc32)c1C [sunitinib] :: 22

Batch of 2 compounds: report %-inhibition of Erk5 for each.
1. N#CC[C@H](C1CCCC1)n1cc(-c2ncnc3[nH]ccc23)cn1 [ruxolitinib]
2. CO[C@H]1C[C@@H]2CC[C@@H](C)[C@@](O)(O2)C(=O)C(=O)N2CCCC[C@H]2C(=O)O[C@H]([C@H](C)C[C@@H]2CC[C@@H](OCCO)[C@H](OC)C2)CC(=O)[C@H](C)/C=C(\C)[C@@H](O)[C@@H](OC)C(=O)[C@H](C)C[C@H](C)/C=C/C=C/C=C/1C [everolimus]

1: 6; 2: -2.5

----------
# experimental target: panel of more than 300 wild-type and mutant kinases (313 kinase panel) (Homo sapiens, UniProt Q9H0K1)
# Sequence (Q9H0K1 whole entry, change not shown): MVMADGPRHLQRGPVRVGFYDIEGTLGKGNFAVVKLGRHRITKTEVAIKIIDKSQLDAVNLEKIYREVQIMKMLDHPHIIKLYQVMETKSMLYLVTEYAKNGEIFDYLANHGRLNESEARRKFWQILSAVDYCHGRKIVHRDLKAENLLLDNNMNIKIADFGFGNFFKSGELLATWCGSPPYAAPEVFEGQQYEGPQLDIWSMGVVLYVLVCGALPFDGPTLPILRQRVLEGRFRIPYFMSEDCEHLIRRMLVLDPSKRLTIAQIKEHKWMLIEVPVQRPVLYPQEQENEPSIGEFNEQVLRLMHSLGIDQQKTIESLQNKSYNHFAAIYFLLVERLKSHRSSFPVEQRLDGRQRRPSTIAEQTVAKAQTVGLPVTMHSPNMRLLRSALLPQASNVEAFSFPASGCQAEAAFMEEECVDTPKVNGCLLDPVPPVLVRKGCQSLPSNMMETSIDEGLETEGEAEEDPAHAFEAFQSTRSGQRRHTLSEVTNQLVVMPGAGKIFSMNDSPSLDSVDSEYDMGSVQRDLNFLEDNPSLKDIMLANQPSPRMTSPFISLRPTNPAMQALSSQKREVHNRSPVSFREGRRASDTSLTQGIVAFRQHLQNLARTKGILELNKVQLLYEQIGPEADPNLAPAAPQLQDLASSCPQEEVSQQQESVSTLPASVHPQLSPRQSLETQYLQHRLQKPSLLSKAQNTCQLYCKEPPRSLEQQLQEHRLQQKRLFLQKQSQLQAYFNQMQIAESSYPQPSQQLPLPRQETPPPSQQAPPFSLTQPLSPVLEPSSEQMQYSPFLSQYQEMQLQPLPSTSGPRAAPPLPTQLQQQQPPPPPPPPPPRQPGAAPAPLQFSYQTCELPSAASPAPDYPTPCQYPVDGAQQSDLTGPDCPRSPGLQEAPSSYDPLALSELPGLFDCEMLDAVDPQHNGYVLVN
# procedure details: Kinase profiling in a biochemical assay panel (mobility shift assays and ELISA), %-inhibition at 1 μM; selectivity entropy
# setup conditions: kinase QIK; 1 μM
Could you please report measured %-inhibition of QIK for the items listed next?
Answers are plain numbers, in %.

Batch of 8 compounds: report %-inhibition of QIK for each.
1. N#CC[C@H](C1CCCC1)n1cc(-c2ncnc3[nH]ccc23)cn1
2. COc1cc(Nc2c(C#N)cnc3cc(OCCCN4CCN(C)CC4)c(OC)cc23)c(Cl)cc1Cl
3. CNC(=O)c1cc(Oc2ccc(NC(=O)Nc3ccc(Cl)c(C(F)(F)F)c3)c(F)c2)ccn1
4. Cc1ccc(Nc2nccc(N(C)c3ccc4c(C)n(C)nc4c3)n2)cc1S(N)(=O)=O
5. Cc1ccc(C(=O)Nc2ccc(CN3CCN(C)CC3)c(C(F)(F)F)c2)cc1C#Cc1cnc2cccnn12
6. CS(=O)(=O)CCNCc1ccc(-c2ccc3ncnc(Nc4ccc(OCc5cccc(F)c5)c(Cl)c4)c3c2)o1
7. CCCS(=O)(=O)Nc1ccc(F)c(C(=O)c2c[nH]c3ncc(-c4ccc(Cl)cc4)cc23)c1F
8. CO[C@H]1C[C@@H]2CC[C@@H](C)[C@@](O)(O2)C(=O)C(=O)N2CCCC[C@H]2C(=O)O[C@H]([C@H](C)C[C@@H]2CC[C@@H](OC(=O)C(C)(CO)CO)[C@H](OC)C2)CC(=O)[C@H](C)/C=C(\C)[C@@H](O)[C@@H](OC)C(=O)[C@H](C)C[C@H](C)/C=C/C=C/C=C/1C

[35, 100, -5.63, 17, 51, -4.72, 6, -3]

Batch of 2 compounds: report %-inhibition of QIK for each.
1. C[C@@H](Oc1cc(-c2cnn(C3CCNCC3)c2)cnc1N)c1c(Cl)ccc(F)c1Cl
2. COc1cc2c(Nc3ccc(Br)cc3F)ncnc2cc1OCC1CCN(C)CC1

[38, 95]

----------
Could you please report measured %-inhibition of EPHA6 for the items listed next?
# experimental target: panel of more than 300 wild-type and mutant kinases (313 kinase panel) (Homo sapiens)
# procedure details: Kinase profiling in a biochemical assay panel (mobility shift assays and ELISA), %-inhibition at 1 μM; selectivity entropy
# setup conditions: kinase EPHA6; compound at 1 μM

Observe how each entry below is paired with its result.
CO[C@H]1C[C@@H]2CC[C@@H](C)[C@@](O)(O2)C(=O)C(=O)N2CCCC[C@H]2C(=O)O[C@H]([C@H](C)C[C@@H]2CC[C@@H](OC(=O)C(C)(CO)CO)[C@H](OC)C2)CC(=O)[C@H](C)/C=C(\C)[C@@H](O)[C@@H](OC)C(=O)[C@H](C)C[C@H](C)/C=C/C=C/C=C/1C :: 0.437%
CCCS(=O)(=O)Nc1ccc(F)c(C(=O)c2c[nH]c3ncc(-c4ccc(Cl)cc4)cc23)c1F :: 37%
CS(=O)(=O)CCNCc1ccc(-c2ccc3ncnc(Nc4ccc(OCc5cccc(F)c5)c(Cl)c4)c3c2)o1 :: 20%

Batch of 2 compounds: report %-inhibition of EPHA6 for each.
1. C[C@@H](Oc1cc(-c2cnn(C3CCNCC3)c2)cnc1N)c1c(Cl)ccc(F)c1Cl
2. Cc1ccc(C(=O)Nc2ccc(CN3CCN(C)CC3)c(C(F)(F)F)c2)cc1C#Cc1cnc2cccnn12

100%
103%

# lookup: panel of more than 300 wild-type and mutant kinases (313 kinase panel) (Homo sapiens) %-inhibition of EPHA6, key = CC(C)(C)c1nc(-c2cccc(NS(=O)(=O)c3c(F)cccc3F)c2F)c(-c2ccnc(N)n2)s1
88%
